- System: RIVA
- PROTOCOL: growth inhibition by drug alone (1 - RLU/untreated control) (fraction); higher = stronger inhibition
- MEASUREMENT_PARAMETERS: 100 nM; time (day): 4; 177Lu-lilotomab satetraxetan 0 ug/ml
Counter-ions that a name gives are not always drawn.
# growth inhibition by drug alone annotations
Answer with the value's number alone.

Here are 3 molecules together with their reported answers.
Fc1cc(-c2cccc3ncc(-c4cnn(C5CCNCC5)c4)nc23)cc(F)c1CN1CCOCC1
-0.305
C[C@H](NC(=O)Cc1cc(F)cc(F)c1)C(=O)N[C@@H]1C(=O)N(C)c2ccccc2-c2ccccc21
-0.355
CC[C@@H]1C(=O)N(C)c2cnc(Nc3ccc(C(=O)NC4CCN(C)CC4)cc3OC)nc2N1C1CCCC1
0.955

// query Which measured growth inhibition by drug alone belongs to CC(C)n1c(/C=C/C(O)CC(O)CC(=O)O)c(-c2ccc(F)cc2)c2ccccc21 (centres undefined) [Fluvastatin sodium (Lescol)] , tested on RIVA?
// result -0.311

// query GET /values?readout=growth inhibition by drug alone&system=RIVA&item= `C[C@@H](Oc1cc(-n2cnc3ccc(CN4CCN(C)CC4)cc32)sc1C(N)=O)c1ccccc1C(F)(F)F`
// result 0.961

// query What growth inhibition by drug alone appears in the records for this molecule with RIVA? `S=C(NCc1ccc2c(c1)OCO2)N1CCN(c2ncnc3c2oc2ccccc23)CC1`
// result 0.0617

// query Form field: growth inhibition by drug alone recorded for C[N+](C)([O-])CCNc1ccc(NCC[N+](C)(C)[O-])c2c1C(=O)c1c(O)ccc(O)c1C2=O [Banoxantrone dihydrochloride] with RIVA (enter value)
// result -0.41

// query Item: CN1CC[C@H](c2c(O)cc(O)c3c(=O)cc(-c4ccccc4Cl)oc23)[C@H](O)C1 [Flavopiridol hydrochloride] Test system: RIVA Read-out: growth inhibition by drug alone Value: ?
// result 0.533

// query # get_value(readout= growth inhibition by drug alone, system= RIVA) for `Cc1cnc(-c2cnc(NCCNc3ccc(C#N)cn3)nc2-c2ccc(Cl)cc2Cl)[nH]1`
// result 0.0178

// query Return growth inhibition by drug alone measured with RIVA given this molecule: `CNC(=O)c1ccccc1Sc1ccc2c(/C=C/c3ccccn3)n[nH]c2c1`
// result -0.0759

// query // lookup growth inhibition by drug alone | system=RIVA | key= `COc1cc2nccc(Oc3ccc(NC(=O)NC4CC4)c(Cl)c3)c2cc1C(N)=O`
// result -0.192

====

- Tested on: U-2932
- PROTOCOL: growth inhibition by drug alone (1 - RLU/untreated control) (fraction); higher = stronger inhibition
- MEASUREMENT_PARAMETERS: 1000 nM; time (day): 4; 177Lu-lilotomab satetraxetan 0 ug/ml
Label Met when growth inhibition by drug alone is at or above 0.7; anything below gets Not met.

Below, 3 compounds whose answers are already recorded.
CO[C@H]1C[C@@H]2CC[C@@H](C)[C@@](O)(O2)C(=O)C(=O)N2CCCC[C@H]2C(=O)O[C@H]([C@H](C)C[C@@H]2CC[C@@H](O)[C@H](OC)C2)CC(=O)[C@H](C)/C=C(\C)[C@@H](O)[C@@H](OC)C(=O)[C@H](C)C[C@H](C)/C=C/C=C/C=C/1C [Rapamycin (Sirolimus)]
Met
Cc1ccc(-c2csc3ncnc(SCCC(=O)O)c23)cc1
Not met
CC#C[C@]1(O)CC[C@H]2[C@@H]3CCC4=CC(=O)CCC4=C3[C@@H](c3ccc(N(C)C)cc3)C[C@@]21C [Mifepristone (Mifeprex)]
Not met

// query Record CC(C)C[C@H](NC(=O)[C@H](Cc1ccccc1)NC(=O)c1cnccn1)B(O)O [Bortezomib (Velcade)] ; criterion: growth inhibition by drug alone no lower than 0.7. Met?
// result Met

// query Determine whether this compound has growth inhibition by drug alone no lower than 0.7: Nc1nc(Cl)nc2c1ncn2[C@@H]1O[C@H](CO)[C@@H](O)[C@@H]1F [Clofarabine]
// result Met

// query Form field: growth inhibition by drug alone at least 0.7? Entry: COc1nc(C)cnc1NS(=O)(=O)c1cccnc1-c1ccc(-c2nnco2)cc1 [Zibotentan (ZD4054)]
// result Not met
